TARGET OR TEST SYSTEM: T1, cynomolgus serum albumin (cynomolgus)
T1 construct: also called CSA; cyno serum albumin
T1 sequence (A2V9Z4 25-608): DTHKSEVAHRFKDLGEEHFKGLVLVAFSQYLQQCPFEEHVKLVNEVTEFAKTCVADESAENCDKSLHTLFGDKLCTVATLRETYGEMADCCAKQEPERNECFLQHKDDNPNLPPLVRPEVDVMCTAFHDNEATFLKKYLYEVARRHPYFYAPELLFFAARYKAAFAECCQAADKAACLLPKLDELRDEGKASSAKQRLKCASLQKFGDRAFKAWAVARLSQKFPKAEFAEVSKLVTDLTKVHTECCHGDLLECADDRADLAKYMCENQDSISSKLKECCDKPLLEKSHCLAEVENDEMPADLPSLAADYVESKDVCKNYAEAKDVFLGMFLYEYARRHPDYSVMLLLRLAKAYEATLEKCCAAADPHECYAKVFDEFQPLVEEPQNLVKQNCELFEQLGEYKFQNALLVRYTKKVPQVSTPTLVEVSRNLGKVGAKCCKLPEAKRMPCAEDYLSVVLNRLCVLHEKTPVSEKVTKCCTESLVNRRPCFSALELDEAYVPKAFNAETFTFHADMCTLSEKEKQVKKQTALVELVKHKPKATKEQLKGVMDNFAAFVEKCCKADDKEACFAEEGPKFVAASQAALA
METHOD DESCRIPTION: binding ELISA, coated albumin, pH 7.4
ENDPOINT LABEL: EC50 (nM)

# EC50 of HSA-20 (designed binder) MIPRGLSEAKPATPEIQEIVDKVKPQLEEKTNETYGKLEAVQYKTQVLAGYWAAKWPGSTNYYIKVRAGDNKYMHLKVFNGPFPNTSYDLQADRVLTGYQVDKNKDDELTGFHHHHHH = 9.55

P = HSA-41 (designed binder, also called HSA-41 parent; HSA-41 AH parent) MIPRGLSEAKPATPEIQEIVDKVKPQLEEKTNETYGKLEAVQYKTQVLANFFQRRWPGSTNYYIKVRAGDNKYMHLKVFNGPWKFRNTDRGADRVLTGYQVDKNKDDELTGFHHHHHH
Q = HSA-18 (designed binder, also called HSA-18 monomer) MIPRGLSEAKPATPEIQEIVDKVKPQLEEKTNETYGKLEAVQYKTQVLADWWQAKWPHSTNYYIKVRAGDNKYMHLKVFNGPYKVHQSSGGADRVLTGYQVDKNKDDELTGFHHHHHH
R = HSA-36 (designed binder) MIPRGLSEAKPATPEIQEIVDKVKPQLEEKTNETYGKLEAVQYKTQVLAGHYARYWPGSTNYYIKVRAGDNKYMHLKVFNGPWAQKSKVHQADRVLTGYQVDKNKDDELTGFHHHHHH
S = HSA-31 (designed binder) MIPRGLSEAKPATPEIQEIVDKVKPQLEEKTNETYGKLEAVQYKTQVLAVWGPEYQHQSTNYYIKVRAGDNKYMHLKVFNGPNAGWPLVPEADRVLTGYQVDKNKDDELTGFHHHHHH
Asked: Arrange by EC50, high to low. Give the labels in the order requested.
Given back: R, P, Q, S
(R: 447 nM, P: 12.8 nM, Q: 7.14 nM, S: 0.43 nM)

Just for reference, patent US20230272011A1 is where these values come from.
